Biological target: alpha2A receptor (Homo sapiens, UniProt P08913)
Sequence (P08913 1-465): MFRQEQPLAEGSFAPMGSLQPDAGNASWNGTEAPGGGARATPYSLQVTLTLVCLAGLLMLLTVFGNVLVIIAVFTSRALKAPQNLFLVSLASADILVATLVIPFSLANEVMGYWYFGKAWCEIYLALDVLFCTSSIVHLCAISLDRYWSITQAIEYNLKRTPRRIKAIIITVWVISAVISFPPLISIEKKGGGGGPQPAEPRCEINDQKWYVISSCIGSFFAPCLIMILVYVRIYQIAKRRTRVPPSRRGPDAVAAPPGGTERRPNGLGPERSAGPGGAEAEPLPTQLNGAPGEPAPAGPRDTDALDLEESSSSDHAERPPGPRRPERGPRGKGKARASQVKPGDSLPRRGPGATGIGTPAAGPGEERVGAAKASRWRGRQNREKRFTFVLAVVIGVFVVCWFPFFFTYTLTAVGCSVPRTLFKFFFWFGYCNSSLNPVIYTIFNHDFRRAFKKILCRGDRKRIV
Test: RSAT assay, alpha 2A
Type: cell-based
Conditions: RSAT; ratio of maximal effect to standard full agonist brimonidine (UK14304)
measurement.type: (rel. efficacy) Alpha 2A
Give bare numbers.

Solved entries (count: 5):
- smiles.structure: "Fc1c(I)cccc1CNC1=NCCS1"
  (rel. efficacy) Alpha 2A: 1.07
- smiles.structure: "Brc1ccccc1CNC1=NCCS1"
  (rel. efficacy) Alpha 2A: 0.37
- smiles.structure: "Clc1ccc(Br)c(CNC2=NCCS2)c1"
  (rel. efficacy) Alpha 2A: 0.45
- smiles.structure: "Clc1c(Br)cccc1CNC1=NCCS1"
  (rel. efficacy) Alpha 2A: 0.4
- smiles.structure: "COc1c(C)cccc1CNC1=NCCS1"
  (rel. efficacy) Alpha 2A: 0.57

Provide reported (rel. efficacy) Alpha 2A for each item, in the same order as listed.
1. Fc1c(Br)cccc1CNC1=NCCS1
2. COc1ccc(Cl)cc1CNC1=NCCS1
3. COc1c(Br)cccc1CNC1=NCCS1
4. COc1c(Cl)cccc1CNC1=NCCS1
5. Cc1cccc(CNC2=NCCS2)c1Cl

Result:
0.44
0.38
0.55
0.38
0.4

Data origin, for the record: patent US8329918B2
